The reported numbers originate from patent US20040254351A1.

Target: T1, G-CSF receptor
T1 sequence (Q99062 whole entry, species assumed, looked up): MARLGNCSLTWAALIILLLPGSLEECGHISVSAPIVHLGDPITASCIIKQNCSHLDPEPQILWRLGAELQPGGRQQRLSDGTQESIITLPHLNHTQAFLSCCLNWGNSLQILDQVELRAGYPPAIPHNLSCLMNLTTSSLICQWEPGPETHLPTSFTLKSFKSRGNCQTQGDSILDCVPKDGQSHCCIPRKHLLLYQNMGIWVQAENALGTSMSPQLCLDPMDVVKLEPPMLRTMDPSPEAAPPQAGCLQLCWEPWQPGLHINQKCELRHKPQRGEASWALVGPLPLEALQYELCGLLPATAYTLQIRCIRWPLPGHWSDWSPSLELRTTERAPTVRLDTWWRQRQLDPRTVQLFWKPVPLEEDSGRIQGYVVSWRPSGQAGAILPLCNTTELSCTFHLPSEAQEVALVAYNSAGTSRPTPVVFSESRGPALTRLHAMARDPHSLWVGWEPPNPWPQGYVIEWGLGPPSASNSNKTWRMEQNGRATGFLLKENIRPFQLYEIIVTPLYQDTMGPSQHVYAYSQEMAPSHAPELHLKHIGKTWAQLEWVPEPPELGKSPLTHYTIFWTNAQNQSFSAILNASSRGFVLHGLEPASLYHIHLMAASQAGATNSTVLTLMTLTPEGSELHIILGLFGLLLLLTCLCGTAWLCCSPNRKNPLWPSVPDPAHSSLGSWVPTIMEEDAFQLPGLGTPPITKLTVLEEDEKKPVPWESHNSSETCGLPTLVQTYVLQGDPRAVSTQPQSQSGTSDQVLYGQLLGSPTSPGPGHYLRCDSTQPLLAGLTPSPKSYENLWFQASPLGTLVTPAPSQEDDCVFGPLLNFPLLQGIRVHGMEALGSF
Assay: cell-based or functional assay
OBSERVATION_TYPE: EC50/Neupogen (reporter activity in cells expressing the G-CSF receptor)

Worked examples, 6 binders total:
BINDER | RESULT
G-CSF[A141N,A143T] (ligand, consensus N-linked glycosylation site at Asn 141 (region 14)) TPLGPASSLPQSFLLKALEQVRKIQGDGAALQEKLCATYKLCHPEELVLLGHSLGIPWAPLSSCPSQALQLAGCLSQLHSGLFLYQGLLQALEGISPELGPTLDTLQLDVADFATTIWQQMEELGMAPALQPTQGAMPAFNSTFQRRAGGVLVASHLQSFLEVSYRVLRHLAQP | 0.54 ratio to Neupogen
G-CSF[A37N,Y39T] (ligand, consensus N-linked glycosylation site at Asn 37 (region 1)) TPLGPASSLPQSFLLKALEQVRKIQGDGAALQEKLCNTTKLCHPEELVLLGHSLGIPWAPLSSCPSQALQLAGCLSQLHSGLFLYQGLLQALEGISPELGPTLDTLQLDVADFATTIWQQMEELGMAPALQPTQGAMPAFASAFQRRAGGVLVASHLQSFLEVSYRVLRHLAQP | 0.8 ratio to Neupogen
G-CSF[P57V,W58N,P60T] (ligand, consensus N-linked glycosylation site at Asn 58 (region 2)) TPLGPASSLPQSFLLKALEQVRKIQGDGAALQEKLCATYKLCHPEELVLLGHSLGIVNATLSSCPSQALQLAGCLSQLHSGLFLYQGLLQALEGISPELGPTLDTLQLDVADFATTIWQQMEELGMAPALQPTQGAMPAFASAFQRRAGGVLVASHLQSFLEVSYRVLRHLAQP | 0.59 ratio to Neupogen
G-CSF[Q67N,L69T] (ligand, consensus N-linked glycosylation site at Asn 67 (region 9)) TPLGPASSLPQSFLLKALEQVRKIQGDGAALQEKLCATYKLCHPEELVLLGHSLGIPWAPLSSCPSNATQLAGCLSQLHSGLFLYQGLLQALEGISPELGPTLDTLQLDVADFATTIWQQMEELGMAPALQPTQGAMPAFASAFQRRAGGVLVASHLQSFLEVSYRVLRHLAQP | 0.78 ratio to Neupogen
G-CSF[A37N,Y39T,S63N,P65T,E93N,I95T] (ligand, consensus N-linked glycosylation sites at Asn 37, Asn 63 and Asn 93 (regions 1, 7 and 10)) TPLGPASSLPQSFLLKALEQVRKIQGDGAALQEKLCNTTKLCHPEELVLLGHSLGIPWAPLSNCTSQALQLAGCLSQLHSGLFLYQGLLQALNGTSPELGPTLDTLQLDVADFATTIWQQMEELGMAPALQPTQGAMPAFASAFQRRAGGVLVASHLQSFLEVSYRVLRHLAQP | 0.97 ratio to Neupogen
G-CSF[S63N,P65T] (ligand, consensus N-linked glycosylation site at Asn 63 (region 7)) TPLGPASSLPQSFLLKALEQVRKIQGDGAALQEKLCATYKLCHPEELVLLGHSLGIPWAPLSNCTSQALQLAGCLSQLHSGLFLYQGLLQALEGISPELGPTLDTLQLDVADFATTIWQQMEELGMAPALQPTQGAMPAFASAFQRRAGGVLVASHLQSFLEVSYRVLRHLAQP | 0.9 ratio to Neupogen

Record EC50/Neupogen (reporter activity in cells expressing the G-CSF receptor) per entry; entries follow.
1. G-CSF[P60N,S62T] (ligand, consensus N-linked glycosylation site at Asn 60 (region 4)) TPLGPASSLPQSFLLKALEQVRKIQGDGAALQEKLCATYKLCHPEELVLLGHSLGIPWANLTSCPSQALQLAGCLSQLHSGLFLYQGLLQALEGISPELGPTLDTLQLDVADFATTIWQQMEELGMAPALQPTQGAMPAFASAFQRRAGGVLVASHLQSFLEVSYRVLRHLAQP
2. G-CSF[E93N,I95T] (ligand, consensus N-linked glycosylation site at Asn 93 (region 10)) TPLGPASSLPQSFLLKALEQVRKIQGDGAALQEKLCATYKLCHPEELVLLGHSLGIPWAPLSSCPSQALQLAGCLSQLHSGLFLYQGLLQALNGTSPELGPTLDTLQLDVADFATTIWQQMEELGMAPALQPTQGAMPAFASAFQRRAGGVLVASHLQSFLEVSYRVLRHLAQP
3. G-CSF[T133N,G135T] (ligand, consensus N-linked glycosylation site at Asn 133 (region 13), replacing the O-linked site) TPLGPASSLPQSFLLKALEQVRKIQGDGAALQEKLCATYKLCHPEELVLLGHSLGIPWAPLSSCPSQALQLAGCLSQLHSGLFLYQGLLQALEGISPELGPTLDTLQLDVADFATTIWQQMEELGMAPALQPNQTAMPAFASAFQRRAGGVLVASHLQSFLEVSYRVLRHLAQP
4. G-CSF[A37N,Y39T,P57V,W58N,P60T,Q67N,L69T] (ligand, consensus N-linked glycosylation sites at Asn 37, Asn 58 and Asn 67 (regions 1, 2 and 9)) TPLGPASSLPQSFLLKALEQVRKIQGDGAALQEKLCNTTKLCHPEELVLLGHSLGIVNATLSSCPSNATQLAGCLSQLHSGLFLYQGLLQALEGISPELGPTLDTLQLDVADFATTIWQQMEELGMAPALQPTQGAMPAFASAFQRRAGGVLVASHLQSFLEVSYRVLRHLAQP

["0.94 ratio to Neupogen", "0.36 ratio to Neupogen", "0.37 ratio to Neupogen", "0.53 ratio to Neupogen"]
